test system: M14; experiment: NCI tumour cell line growth inhibition, 48 h
Activity calls are given as the source filed them. No stated cut-off is given here; in the data, active = GI50 up to about 1.1 µM and inactive = higher.
// values below are reported GI50
quantity_name: GI50

• Oc1ccc2ccccc2c1/N=N/c1ccc(Cl)cc1 = > 100 µM (inactive)
• NC(CCC(=O)NC(CSC(=O)N(O)c1ccc(Br)cc1)C(=O)NCC(=O)O)C(=O)O (centres undefined) = 30 µM (inactive)
• CCCN(CCCC(NC(C)=O)C(=O)NCc1ccccc1)C(=O)NCCCl (centres undefined) = > 100 µM (inactive)
• COc1ccccc1OCC(COC(=O)Nc1ccc(C)cc1)OC(=O)Nc1ccc(C)cc1 (centres undefined) = 19.2 µM (inactive)
